experimentalTarget: HLA-A*0202 (human)
assayComment: competition with 125I-labelled probe peptide for purified HLA, gel filtration
experimentalConditions: remark: other sources report otherwise
assayMetric: IC50 (nM)

INSERT INTO measurements (binder, reportedresult) VALUES
  ('VLLGVVFGV [Her2/neu.665L2V9]', 17);
